Data origin: paper PMC6627609

assay target: LsrK (Salmonella typhimurium, UniProt Q8ZKQ6)
Sequence (Q8ZKQ6 whole entry): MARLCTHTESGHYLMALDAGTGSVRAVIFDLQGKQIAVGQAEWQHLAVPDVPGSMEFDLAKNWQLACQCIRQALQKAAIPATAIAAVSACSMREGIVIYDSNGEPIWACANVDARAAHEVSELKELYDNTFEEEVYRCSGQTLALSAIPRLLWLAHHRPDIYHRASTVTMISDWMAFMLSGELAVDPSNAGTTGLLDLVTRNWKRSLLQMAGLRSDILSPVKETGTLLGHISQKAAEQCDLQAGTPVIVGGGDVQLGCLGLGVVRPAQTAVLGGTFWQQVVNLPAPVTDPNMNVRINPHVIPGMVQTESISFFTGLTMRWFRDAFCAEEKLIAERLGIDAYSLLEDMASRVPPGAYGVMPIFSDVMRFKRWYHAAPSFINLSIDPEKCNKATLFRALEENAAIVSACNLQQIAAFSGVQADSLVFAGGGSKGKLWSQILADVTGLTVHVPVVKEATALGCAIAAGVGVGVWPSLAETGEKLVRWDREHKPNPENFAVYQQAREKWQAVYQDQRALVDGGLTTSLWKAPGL
protocol: biochemical
Format: biochemical, S. typhimurium
assay metric: inhibition at 50 µM (%)
Dear colleague, please return just the value in %, with no unit written.

Here are 5 molecules together with their reported answers.
Read the entry CC1(C)C[C@@H]2C(=O)CC[C@H]3O[C@]3(C)CC[C@H]21 [KOBUSONE] and write its reported inhibition at 50 µM.
1

Read the entry Cc1ccc(/N=C/N(C)/C=N/c2ccc(C)cc2C)c(C)c1 [AMITRAZ] and write its reported inhibition at 50 µM.
1

Read the entry C=C1C[C@H]2[C@@H]3C=C(C)C4=CC(=O)CC[C@]4(C)[C@H]3CC[C@]2(C)[C@@]1(OC(C)=O)C(C)=O [MELENGESTROL ACETATE] and write its reported inhibition at 50 µM.
1

Read the entry COc1ccnc(C[S+]([O-])c2nc3ccc(OC(F)F)cc3[nH]2)c1OC (stereo not drawn) [PANTOPRAZOLE] and write its reported inhibition at 50 µM.
3

Read the entry N[C@@H]1CON=C1O [CYCLOSERINE] and write its reported inhibition at 50 µM.
0

Turning to the following molecule.
Read the entry COC(=O)C[C@H]1C(C)(C)C(=O)[C@@H]2CC3C4=CC(=O)O[C@@H](c5ccoc5)[C@]4(C)CC[C@@H]3[C@@]1(C)C2=O (stereo partly drawn) [CARAPIN] and write its reported inhibition at 50 µM.
2

###

assay target: LsrK (Salmonella typhimurium, UniProt Q8ZKQ6)
protocol: biochemical
Assay type: biochemical, S. typhimurium
measurement parameters: 50 µM
assay metric: Inhibition (%)

Here are 5 compounds together with their reported answers.
Read the entry CC(=O)O[C@H]1C[C@@H](OC(C)=O)C(C)(C)[C@@H]2C[C@@H](OC(C)=O)[C@@]3(C)C4=CC(=O)O[C@@H](c5ccoc5)[C@]4(C)CC[C@@H]3[C@@]12C [DEOXYKHIVORIN] and write its reported Inhibition (%).
1

Read the entry COc1cc2c(cc1-c1cc3cc4ccoc4cc3oc1=O)OCO2 [PACHYRRHIZIN] and write its reported Inhibition (%).
1

Read the entry C[N+](C)(CCOc1ccccc1)Cc1ccccc1.O=C([O-])c1cc2ccccc2cc1O [BEPHENIUM HYDROXYNAPTHOATE] and write its reported Inhibition (%).
1

Read the entry O=c1c(O)c(-c2ccc(O)c(O)c2)oc2c(O[C@@H]3O[C@H](CO)[C@@H](O)[C@H](O)[C@H]3O)c(O)cc(O)c12 [GOSSYPIN] and write its reported Inhibition (%).
57

Read the entry Cl.Cl.NCCNCCNCCN [TRIENTINE HYDROCHLORIDE] and write its reported Inhibition (%).
13

Others:
Read the entry C=C[C@@]1(C)CC(=O)[C@@]2(O)[C@](C)(O1)[C@@H](O)[C@@H](O)C1C(C)(C)CC[C@H](O)[C@@]12C (stereo partly shown) [DESACETYLCOLFORSIN] and write its reported Inhibition (%).
1

Read the entry COc1ccc(/C=C/C(=O)c2ccc(O)cc2O)cc1 [2'.4'-DIHYDROXY-4-METHOXYCHALCONE] and write its reported Inhibition (%).
2

Read the entry Cl.c1cnc(N2CCN(Cc3ccc4c(c3)OCO4)CC2)nc1 [PIRIBEDIL HYDROCHLORIDE] and write its reported Inhibition (%).
3

Read the entry COc1cc(O)c(C(=O)/C=C/c2ccc(OC)c(O)c2)c(OC)c1 and write its reported Inhibition (%).
2

Read the entry O=C(O)C(S)C(S)C(=O)O (stereo not shown) [2.3-DIMERCAPTOSUCCINIC ACID] and write its reported Inhibition (%).
88

Read the entry COc1cc(OC)c(C(C)=O)c(OC)c1 [METHYLXANTHOXYLIN] and write its reported Inhibition (%).
4
